# Experiment notes: In vitro plasma stability, human plasma
# Format: in vitro ADME
# Condition description: male, pH 7.4, 5 μM, 37° C., sampling 0-360 minutes, read-out: T1/2 Human
Would you mind telling me the reported half-life at 5 μM of each entry?
# number only, unit min dropped from output

// half-life at 5 μM value for CN1N=C(c2ccc([S+](C)[O-])cc2)C(C)(NO)C1=O (stereo not drawn) : 65

// half-life at 5 μM value for CN1N=C(c2cccc(S(C)(=O)=O)c2)C(C)(NO)C1=O (stereo not drawn) : 49

// half-life at 5 μM value for CN1N=C(c2ccc(S(C)(=O)=O)c(N3CCOCC3)c2)C(C)(NO)C1=O (stereo not drawn) : 46

// half-life at 5 μM value for CN1N=C(c2ccc(S(C)(=N)=O)cc2)C(C)(NO)C1=O (stereo not drawn) : 49

// half-life at 5 μM value for CN1N=C(c2ccc(S(=O)(=O)N(C)C)cc2)C(C)(NO)C1=O (stereo not drawn) : 52

// half-life at 5 μM value for CCO/N=C(\C)C1(NO)C(=O)N(C)N=C1C (stereo not drawn) : 6

// half-life at 5 μM value for CCOC1=NN(C)C(=O)C1(NO)/C(C)=N/OCc1ccccc1 (stereo not drawn) : 10

// half-life at 5 μM value for CN1N=C(c2ccc(F)cc2Cl)C(C)(NO)C1=O (stereo not drawn) : 18

// half-life at 5 μM value for CC(C)S(=N)(=O)c1ccc(C2=NN(C)C(=O)C2(C)NO)cc1 (stereo not drawn) : 32
